The next entries give measured Ki for Carbonic anhydrase 5A, mitochondrial (Homo sapiens, UniProt P35218).
Express the result in µM but write the number alone.

### Prompt What value of Ki has been reported for the following molecule? O=c1c(O)c(-c2ccc(O)c(O)c2)oc2cc(O)cc(O)c12
### Response 6.81

### Prompt What value of Ki has been reported for the following molecule? O=c1oc2c(O)c(O)cc3c(=O)oc4c(O)c(O)cc1c4c23
### Response 7.59

### Prompt What value of Ki has been reported for the following molecule? O=C(O)/C=C/c1ccc(O)cc1
### Response 5.96

### Prompt What value of Ki has been reported for the following molecule? O=C(O)c1cc(O)c(O)c(O)c1
### Response 4.08

### Prompt What value of Ki has been reported for the following molecule? COc1cc(/C=C/C(=O)O)ccc1O [FERULATE]
### Response 7.04
